# System: SNB-78
# Assay notes: NCI tumour cell line growth inhibition, 48 h
Calls of active or inactive are those of the source. No stated cut-off is given here; in the data, active = GI50 up to about 1.1 µM and inactive = higher.
Write down one outcome, taken from active, inactive

Assay outcome for CCCCCCCCCCCCCCCC/C(C(=O)OC)=C(/O)C(=O)OCC : what was it?
inactive

Assay outcome for C[S+]([O-])c1cc(=O)c2ccccc2s1 (centres undefined) : what was it?
inactive

Assay outcome for COc1ccc(CC/N=C2\CCC(C(=O)NCCc3ccc(OC)c(OC)c3)N2)cc1OC (centres undefined) : what was it?
inactive

Assay outcome for N/C(=N\O)N/N=C/c1ccc(O)c(O)c1 : what was it?
inactive

Assay outcome for CC(O)C(NC(=O)c1ccccc1)C(=O)N(Cc1ccccc1)Cc1ccccc1 (centres undefined) : what was it?
inactive

Assay outcome for O=c1[nH]c2ccccc2cc1C(Cl)=C(Cl)Cl : what was it?
inactive

Assay outcome for CCCN(CCCC(NC(C)=O)C(=O)NCc1ccccc1)C(=O)N(CCCl)N=O (centres undefined) : what was it?
inactive

Assay outcome for Cc1cc2c(=O)cc(-c3ccc(Cl)c(Cl)c3)oc2c(C(=O)O)c1C : what was it?
inactive

Assay outcome for COc1cc(C(=O)N[C@H]2CCc3cc(OC)c(OC)c(OC)c3-c3ccc(SC)c(=O)cc32)cc(OC)c1OC : what was it?
active

Assay outcome for Oc1ccc2occ3c2c1CCC3 : what was it?
inactive

Assay outcome for O=C1c2cccc([N+](=O)[O-])c2C(=O)c2nccnc21 : what was it?
inactive

Assay outcome for Cc1ccc(Sc2ccccc2N)cc1 : what was it?
inactive

Assay outcome for COC(=O)C(C(=O)C(=O)Nc1ccccc1C(C)=O)c1nc2ccc(Cl)cc2nc1O (centres undefined) : what was it?
inactive

Assay outcome for O=C(Nc1nc2ncn(CCI)c2c(=O)[nH]1)c1ccccc1 : what was it?
inactive
